Entries annotated with measured Ki
target: MDM2 (Homo sapiens, UniProt Q00987); test: Competitive fluorescence polarization assay for MDM2; type: binding; details: competitive FP assay, MDM2; read-out: Ki (MDM2)
Sequence (Q00987 1-125): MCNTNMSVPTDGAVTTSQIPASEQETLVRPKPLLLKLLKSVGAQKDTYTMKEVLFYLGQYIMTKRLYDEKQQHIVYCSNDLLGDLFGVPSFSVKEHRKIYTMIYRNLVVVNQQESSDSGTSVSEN
Where a SMILES comes first, the peptide text is derived from it. Bridges are numbered along the chain shown (N, C = ends). [ ]: non-standard residue; d: D form. R8 = C=CCCCCCC[C@@](C)(N)C(=O)O; S5 = C=CCCC[C@](C)(N)C(=O)O; Nle = CCCC[C@H](N)C(=O)O

Here's what some known entries look like.
1) CCCC[C@H](NC(=O)[C@H](C)NC(=O)[C@H](C)NC(=O)[C@]1(C)CCCC=CCCCCCC[C@@](C)(NC(=O)[C@H](Cc2ccccc2)NC(=O)[C@H](C)NC(=O)[C@H](C)NC(=O)[C@H](C)NC(=O)[C@H](C)NC(C)=O)C(=O)N[C@@H](CCC(=O)O)C(=O)N[C@@H](Cc2ccc(O)cc2)C(=O)N[C@@H](Cc2c[nH]c3ccccc23)C(=O)N[C@@H](C)C(=O)N[C@@H](CCC(N)=O)C(=O)N[C@@H](CC(C)C)C(=O)N1)C(=O)N[C@@H](C)C(N)=O [compound 373] (Ac-AAAAF[R8]EYWAQL[S5]AA[Nle]A-NH2; staple 6-13) = 10 to 100 nM
2) CC[C@H](C)[C@H](NC(C)=O)C(=O)N[C@H](C(=O)N[C@@H](Cc1ccccc1)C(=O)N[C@]1(C)CCCCCCC=CCCC[C@@](C)(C(=O)N[C@@H](C)C(=O)N[C@@H](Cc2c[nH]cn2)C(=O)N[C@@H](Cc2ccccc2)C(=O)N[C@@H](C)C(N)=O)NC(=O)[C@H](CC(C)C)NC(=O)[C@H](CCC(N)=O)NC(=O)[C@H](C)NC(=O)[C@H](Cc2c[nH]c3ccccc23)NC(=O)[C@H](Cc2c[nH]cn2)NC(=O)[C@H](CCC(=O)O)NC1=O)[C@@H](C)O (single isomer, unassigned) = < 10 nM
3) CC[C@H](C)[C@H](NC(=O)[C@H](C)NC(=O)[C@H](C)NC(=O)[C@]1(C)CCCC=CCCCCCC[C@@](C)(NC(=O)[C@H](Cc2ccccc2)NC(=O)[C@@H](NC(=O)[C@H](CC(C)C)NC(C)=O)[C@@H](C)O)C(=O)N[C@@H](C)C(=O)N[C@@H](CCC(=O)O)C(=O)N[C@@H](Cc2c[nH]c3ccccc23)C(=O)N[C@@H](C)C(=O)N[C@@H](CCC(N)=O)C(=O)N[C@@H](CC(C)C)C(=O)N1)C(=O)N[C@H](C)C(N)=O [compound 180] (Ac-LTF[R8]AEWAQL[S5]AAI[dA]-NH2; staple 4-11) = < 10 nM

// moving on: another record for Ki
Req: Give the reported value of Ki for this record: CC(=O)N[C@@H](CC(C)C)C(=O)N[C@H](C(=O)N[C@@H](Cc1ccccc1)C(=O)N[C@]1(C)CCCCCCC=CCCC[C@@](C)(C(=O)N[C@@H](CO)C(=O)N[C@@H](C)C(=O)N[C@@H](C)C(N)=O)NC(=O)[C@H](CC(C)C)NC(=O)[C@H](C)NC(=O)[C@H](C(C)C)NC(=O)[C@H](Cc2c[nH]c3ccccc23)NC(=O)[C@H](Cc2ccc(O)cc2)NC(=O)[C@H](C)NC1=O)[C@@H](C)O [compound 196] (Ac-LTF[R8]AYWVAL[S5]SAA-NH2; staple 4-11)
Resp: < 10 nM
